Tested on: A498
Experiment: NCI tumour cell line growth inhibition, 48 h
Active and inactive are the calls of the source. No stated cut-off is given here; in the data, active = GI50 up to about 1.1 µM and inactive = higher.
Your reply should match one of these outcome classes. 1 (active), -1 (inactive)

Here's what some known entries look like.
Q: Call for entry N#CC1(C#N)NC(c2ccccc2)C(C#N)(C#N)NC1c1ccccc1 (stereo not drawn) :
A: -1

Q: Call for entry C=C1[C@H](OCC(C)C)[C@@H](OC(=O)C(C)CC)[C@@H](O)C(C)(C)/C=C/[C@H](C)C(=O)[C@@]2(O)C[C@H](C)[C@H](O)[C@@H]2[C@H]1OC(=O)C(C)CC (stereo partly drawn) :
A: -1

Q: Call for entry Cc1ccc(S(=O)(=O)OC2CC(C(C)(C)C)CCC2c2ccccc2)cc1 (stereo not drawn) :
A: -1

---
Q: Call for entry Clc1ccc(C[P+](c2ccccc2)(c2ccccc2)c2ccccc2)cc1Cl :
A: -1

Q: Call for entry O=C(O)c1ccc2nc(-c3ccccn3)c(-c3ccccn3)nc2c1 :
A: -1

Q: Call for entry CCN(CC)CCCNC(=O)C1COc2cc(-c3cc(=O)c4ccccc4o3)ccc2O1 (stereo not drawn) :
A: -1

Q: Call for entry CCOC(=O)c1sc2ncnc(N)c2c1C :
A: -1

Q: Call for entry COc1cc(C)c(O)c(C(=O)O)c1 :
A: -1

Q: Call for entry COc1cc(OC)c(C/C=C/c2ccccc2)cc1O :
A: -1

Data credit: ChEMBL document CHEMBL1201862
